Attribution: patent US7101878B1

TARGET_DESC: TXA2 (Homo sapiens, UniProt P21731)
Sequence (P21731 whole entry): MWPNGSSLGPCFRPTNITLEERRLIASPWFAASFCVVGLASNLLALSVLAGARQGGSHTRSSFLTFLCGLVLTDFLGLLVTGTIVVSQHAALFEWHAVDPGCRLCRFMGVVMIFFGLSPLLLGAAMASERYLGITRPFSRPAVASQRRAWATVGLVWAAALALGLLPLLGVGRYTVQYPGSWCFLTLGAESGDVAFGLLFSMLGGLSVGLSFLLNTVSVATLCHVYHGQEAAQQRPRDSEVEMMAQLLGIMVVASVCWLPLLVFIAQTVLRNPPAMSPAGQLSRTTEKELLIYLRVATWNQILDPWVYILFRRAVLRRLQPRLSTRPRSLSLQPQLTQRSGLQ
VALUE_KIND: Ki

structure=COc1cccc(OC)c1NC(=O)c1ccc(Cc2cc3c(cc2C)C(C)(C)CCC3(C)C)o1 test_result="> 1000 nM"

====

METHOD_SUMMARY: Pharmacokinetic studies / bioavailability in rats
Assay type: in vivo, rat
REPORTED_CONDITIONS: female, rat, plasma, po, 10 mg/kg, rat female; p.o. 10 mg/kg; 5 mg/ml solution in 10% DMSO 10% cremophor 80% saline
VALUE_KIND: Cmax (nM)

molecule="COc1cc(OC)c(NC(=O)c2ccc(Cc3cc4c(cc3C)OCCC4(C)C)o2)c(OC)c1 [Compound 221]" unit_abbreviation=nM test_result=340
molecule="Cc1ccc(C(C)(C)C)cc1Cc1ccc(C(=O)NCc2cccc(CNc3ccnc(NC[C@H]4CCCO4)n3)c2)o1 [Compound 212]" unit_abbreviation=nM test_result=50
molecule="Cc1ccc(C(C)(C)C)cc1Cc1ccc(C(=O)Nc2ccc3[nH]ccc3c2)o1 [Compound 207]" unit_abbreviation=nM test_result=2810
molecule="COc1cc(OC)c(NC(=O)c2ccc(Cc3c(OC)cc(C)c(Cl)c3C)o2)c(OC)c1 [Compound 299]" unit_abbreviation=nM test_result=1740
molecule="COc1cccc(OC)c1NC(=O)c1ccc(Cc2c(C)cc(C)c(Br)c2C)o1 [Compound 140]" unit_abbreviation=nM test_result=440
molecule="COc1cc(OC)c(NC(=O)c2ccc(Cc3cc4c(cc3C)CCCC4(C)C)o2)c(OC)c1 [Compound 183]" unit_abbreviation=nM test_result=510

====

TARGET_DESC: PAF (Homo sapiens, UniProt P25105)
Sequence (P25105 whole entry): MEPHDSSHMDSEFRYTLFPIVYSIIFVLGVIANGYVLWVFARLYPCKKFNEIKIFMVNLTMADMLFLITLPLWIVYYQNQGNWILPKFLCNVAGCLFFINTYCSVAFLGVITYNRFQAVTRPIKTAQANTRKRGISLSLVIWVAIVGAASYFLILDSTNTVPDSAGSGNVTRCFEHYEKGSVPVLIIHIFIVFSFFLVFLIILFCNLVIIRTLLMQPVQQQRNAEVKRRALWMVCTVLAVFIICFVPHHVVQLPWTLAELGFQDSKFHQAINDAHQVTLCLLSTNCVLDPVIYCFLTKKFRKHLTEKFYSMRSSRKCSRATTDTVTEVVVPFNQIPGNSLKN
VALUE_KIND: Ki

molecule="COc1cccc(OC)c1NC(=O)c1ccc(Cc2cc3c(cc2C)C(C)(C)CCC3(C)C)o1 [Compound 20]" test_result="3 to 5 µM"

====

TARGET_DESC: human GnRH receptor (Homo sapiens, UniProt P30968)
Construct: expressed in transfected cells; host or cells: HEK 293 (hGnRH-R/293, from Dr. Stuart Sealfon)
Sequence (P30968 whole entry): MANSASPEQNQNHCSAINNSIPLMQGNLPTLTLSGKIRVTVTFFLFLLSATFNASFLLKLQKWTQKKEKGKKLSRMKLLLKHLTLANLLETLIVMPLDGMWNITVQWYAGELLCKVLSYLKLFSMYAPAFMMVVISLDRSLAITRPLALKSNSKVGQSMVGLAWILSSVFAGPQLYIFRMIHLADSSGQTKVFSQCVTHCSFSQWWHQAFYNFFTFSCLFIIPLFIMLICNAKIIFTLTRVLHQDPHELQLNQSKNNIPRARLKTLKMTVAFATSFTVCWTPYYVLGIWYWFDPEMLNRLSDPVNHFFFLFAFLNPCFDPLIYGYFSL
METHOD_SUMMARY: Radioligand binding, 125I-GnRH-A displacement, membranes of HEK 293 cells with human GnRH receptor
REPORTED_CONDITIONS: 1 h, repeat of % Inhib. at 1 uM; read-out: Repeats @ 1 uM hGnRH
VALUE_KIND: inhibition at 1 µM (%)

molecule="Cc1cc2c(cc1Cc1ccc(C(=O)NCC3CCN(C(=N)N)CC3)o1)C(C)(C)CCC2(C)C [drawing 1063]" target_desc="human GnRH receptor (Homo sapiens, UniProt P30968)" test_result=87
molecule="Cc1cc2c(cc1Cc1ccc(C(=O)NC(C)c3ccc(O)cc3)o1)C(C)(C)CCC2(C)C (centres unmarked)" target_desc="human GnRH receptor (Homo sapiens, UniProt P30968)" test_result=-9
molecule=Cc1cc2c(cc1Cc1ccc(C(=O)NC3=NN(c4c(Cl)cc(Cl)cc4Cl)C(=O)C3)o1)C(C)(C)CCC2(C)C target_desc="human GnRH receptor (Homo sapiens, UniProt P30968)" test_result=-31
molecule=Cc1cc2c(cc1Cc1ccc(C(=O)N3CCN(c4ccccc4C#N)CC3)o1)C(C)(C)CCC2(C)C target_desc="human GnRH receptor (Homo sapiens, UniProt P30968)" test_result=62
molecule=Cc1cc2c(cc1Cc1ccc(C(=O)N3CCN(c4ccc(O)cc4)CC3)o1)C(C)(C)CCC2(C)C target_desc="human GnRH receptor (Homo sapiens, UniProt P30968)" test_result=-6
molecule="Cc1cc2c(cc1Cc1ccc(C(=O)NCCc3ccc(N)cc3)o1)C(C)(C)CCC2(C)C [drawing 1017]" target_desc="human GnRH receptor (Homo sapiens, UniProt P30968)" test_result=64
molecule=Cc1cc2c(cc1Cc1ccc(C(=O)N(C)[C@H](C)[C@H](O)c3ccccc3)o1)C(C)(C)CCC2(C)C target_desc="human GnRH receptor (Homo sapiens, UniProt P30968)" test_result=-6
molecule="Cc1cc2c(cc1Cc1ccc(C(=O)NCCc3cccc(F)c3)o1)C(C)(C)CCC2(C)C [drawing 1181]" target_desc="human GnRH receptor (Homo sapiens, UniProt P30968)" test_result=62

====

TARGET_DESC: human GnRH receptor (Homo sapiens, UniProt P30968)
Construct: expressed in transfected cells; host or cells: HEK 293 (hGnRH-R/293, from Dr. Stuart Sealfon)
METHOD_SUMMARY: Radioligand binding, 125I-GnRH-A displacement, membranes of HEK 293 cells with human GnRH receptor
REPORTED_CONDITIONS: 1 uM; read-out: % Inhib. @ 1 uM hGnRH
Rule: inhibition at 1 µM of 50% or more gives rule met; anything lower gives rule not met.

compound=Cc1cc2c(cc1Cc1ccc(C(=O)Nc3nccc(Nc4cc(C(F)(F)F)cc(C(F)(F)F)c4)n3)o1)C(C)(C)CCC2(C)C label="rule not met"
compound=Cc1cc2c(cc1Cc1ccc(C(=O)NCc3cccc4c3Cc3ccccc3-4)o1)C(C)(C)CCC2(C)C label="rule not met"
compound="COc1ccc(CNC(=O)c2ccc(Cc3cc4c(cc3C)C(C)(C)CCC4(C)C)o2)cc1OC [drawing 1095]" label="rule met"
compound=Cc1cc2c(cc1Cc1ccc(C(=O)N3CCN(c4ccc(C(F)(F)F)cc4)CC3)o1)C(C)(C)CCC2(C)C label="rule not met"
compound=Cc1cc2c(cc1Cc1ccc(C(=O)N3CCN(c4cccc(C(F)(F)F)c4)CC3)o1)C(C)(C)CCC2(C)C label="rule not met"
compound="Cc1cc2c(cc1Cc1ccc(C(=O)NCCCN3CCCC3=O)o1)C(C)(C)CCC2(C)C [drawing 1131]" label="rule met"
compound=Cc1cc2c(cc1Cc1ccc(C(=O)NCc3cc(Cl)ccc3Cl)o1)C(C)(C)CCC2(C)C label="rule not met"

====

Ki reference
TARGET_DESC: 5-HT7 (Homo sapiens)
Sequence (P34969 whole entry, species assumed): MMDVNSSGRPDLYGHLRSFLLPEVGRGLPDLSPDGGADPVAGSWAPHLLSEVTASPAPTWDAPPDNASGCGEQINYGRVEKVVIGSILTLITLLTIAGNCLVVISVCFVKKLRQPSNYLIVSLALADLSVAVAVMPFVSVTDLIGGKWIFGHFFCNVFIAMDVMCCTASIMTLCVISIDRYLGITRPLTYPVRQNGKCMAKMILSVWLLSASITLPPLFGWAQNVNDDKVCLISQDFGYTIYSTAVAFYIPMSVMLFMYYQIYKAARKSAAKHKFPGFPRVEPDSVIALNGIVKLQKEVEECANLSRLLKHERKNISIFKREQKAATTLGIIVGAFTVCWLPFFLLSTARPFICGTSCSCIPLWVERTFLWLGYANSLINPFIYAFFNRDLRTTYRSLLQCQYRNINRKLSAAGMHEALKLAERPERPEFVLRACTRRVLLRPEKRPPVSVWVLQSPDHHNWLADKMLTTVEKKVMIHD
VALUE_KIND: Ki

structure=COc1cc(OC)c(NC(=O)c2ccc(Cc3cc4c(cc3C)C(C)(C)CCC4(C)C)o2)c(OC)c1 test_result="> 4.4 µM"
structure=Cc1cc2c(cc1Cc1ccc(C(=O)NC[C@H]3CC[C@H](C(=O)O)CC3)o1)C(C)(C)CCC2(C)C test_result="> 4.5 µM"
structure=Cc1cnc(CNC(=O)c2ccc(Cc3cc4c(cc3C)C(C)(C)CCC4(C)C)o2)cn1 test_result="> 4.4 µM"
structure=Cc1cc2c(cc1Cc1ccc(C(=O)NC[C@H]3CC[C@H](CNC(=N)N)CC3)o1)C(C)(C)CCC2(C)C test_result="1.27 µM"
structure=COc1cccc(OC)c1NC(=O)c1ccc(Cc2cc3c(cc2C)C(C)(C)CCC3(C)C)o1 test_result="> 4.4 µM"

====

TARGET_DESC: human GnRH receptor (Homo sapiens, UniProt P30968)
Construct: expressed in transfected cells; host or cells: HEK 293 (hGnRH-R/293, from Dr. Stuart Sealfon)
METHOD_SUMMARY: Radioligand binding, 125I-GnRH-A displacement, membranes of HEK 293 cells with human GnRH receptor
REPORTED_CONDITIONS: 1 h, repeat of % Inhib. at 1 uM; read-out: Repeats @ 1 uM hGnRH
Procedure: All compounds were diluted in 1% DMSO (final assay concentration) in binding assay buffer. […] Reactions were terminated by rapid filtration onto 96-well Packard GF/C filters soaked in 0.1% polyethyleneimine. Filters were washed three times with PBS buffer, dried and counted on a Packard Topcount by liquid scintillation counting. […] The reaction mixture was vortexed and incubated for 1 min at room temperature. […] Fractions were assessed for biological activity by radioligand binding. […]
VALUE_KIND: inhibition at 1 µM (%)

molecule="Cc1cc2c(cc1Cc1ccc(C(=O)NCc3cccc([N+](=O)[O-])c3)o1)C(C)(C)CCC2(C)C [drawing 1231]" test_result=77
molecule="Cc1cc2c(cc1Cc1ccc(C(=O)NCCNc3cccc(NCC4CCCO4)n3)o1)C(C)(C)CCC2(C)C (stereo not shown)" test_result=22
molecule=COc1ccc(CCN(C)C(=O)c2ccc(Cc3cc4c(cc3C)C(C)(C)CCC4(C)C)o2)cc1OC test_result=7
molecule="Cc1cc2c(cc1Cc1ccc(C(=O)NCc3ccc(F)cc3F)o1)C(C)(C)CCC2(C)C [drawing 1197]" test_result=81
molecule=Cc1cc2c(cc1Cc1ccc(C(=O)NCc3ccc(F)cc3Cl)o1)C(C)(C)CCC2(C)C test_result=48
molecule="Cc1cc2c(cc1Cc1ccc(C(=O)NCCCN(C)CCCN)o1)C(C)(C)CCC2(C)C [drawing 1005]" test_result=33
molecule="Cc1cc2c(cc1Cc1ccc(C(=O)N(C)CC(O)c3cccc(O)c3)o1)C(C)(C)CCC2(C)C (stereo not shown)" test_result=9
molecule="Cc1cc2c(cc1Cc1ccc(C(=O)NCCOc3ccccc3)o1)C(C)(C)CCC2(C)C [drawing 1182]" test_result=95
molecule="Cc1cc2c(cc1Cc1ccc(C(=O)NCc3nc4ccccc4[nH]3)o1)C(C)(C)CCC2(C)C [drawing 1053]" test_result=101
molecule="Cc1cc2c(cc1Cc1ccc(C(=O)NC(C)c3ccc(Cl)cc3)o1)C(C)(C)CCC2(C)C (stereo not shown)" test_result=28
molecule="Cc1cc2c(cc1Cc1ccc(C(=O)NCCc3ccncc3)o1)C(C)(C)CCC2(C)C [drawing 1025]" test_result=84
molecule="Cc1cc2c(cc1Cc1ccc(C(=O)NCCCN3CCN(C)CC3)o1)C(C)(C)CCC2(C)C [drawing 980]" test_result=26
molecule="Cc1cc2c(cc1Cc1ccc(C(=O)NCC(=O)Nc3ccc([N+](=O)[O-])cc3)o1)C(C)(C)CCC2(C)C [drawing 1022]" test_result=86
molecule="COc1ccc(CNC(=O)c2ccc(Cc3cc4c(cc3C)C(C)(C)CCC4(C)C)o2)cc1 [drawing 1098]" test_result=92
molecule="Cc1cc2c(cc1Cc1ccc(C(=O)N(CC(O)c3ccccc3)C3CCCCC3)o1)C(C)(C)CCC2(C)C (stereo not shown)" test_result=-9
molecule="COc1ccc(CCNC(=O)c2ccc(Cc3cc4c(cc3C)C(C)(C)CCC4(C)C)o2)cc1OC [drawing 993]" test_result=52
